System: OVCAR-4 ovarian
Test: NCI-60 one-dose screen, 48 h (100 = growth as untreated, 0 = no growth, -100 = all killed)
Conditions: 10 µM unless noted
About 83,000 compounds went through this panel and 20% of them were active in at least one assay; those are over-represented in the sample as a whole.
METRIC_NAME: growth (%)
Could you give me the number in %? Just the number is fine.

* OCc1cccc(F)c1 | 113
* C/C=C/C(=O)OCCCCCCCCCCCC | 113
* Cn1c(-c2ccccc2)cc(=O)cc1-c1ccccc1 | 85.6

Prompt: What value of growth on OVCAR-4 ovarian does `O=S(=O)(O)c1ccc2cc(O)ccc2c1` have?
Completion: 112

Prompt: What value of growth on OVCAR-4 ovarian does `O=C(O)COc1ccccc1F` have?
Completion: 111

Prompt: What value of growth on OVCAR-4 ovarian does `CC(=O)/C(N=Nc1ccc(S(=O)(=O)c2ccc(N=N/C(C(C)=O)=C(/C)O)cc2)cc1)=C(\C)O` have?
Completion: 107

Prompt: What value of growth on OVCAR-4 ovarian does CC(NC(=O)CCl)c1ccccc1 (configuration not stated) have?
Completion: 98.7
